measurement-protocol: Comparative bioavailability study, curcumin in plasma by HPLC
Assay type: in vivo, human
recorded-conditions: human, plasma, po, 1 gm, 1 gm curcuminoids oral; read-out: Tmax, Geometric Mean
measured-metric: Tmax (h)
Output spec: scalar in h, unitless text.

Request: GET /values?readout=Tmax&item= COc1cc(C=CC(=O)CC(=O)C=Cc2ccc(O)c(OC)c2)ccc1O
Result: 4.06

====

measurement-protocol: Comparative bioavailability study, curcumin in plasma by HPLC
Assay type: in vivo, human
recorded-conditions: human, plasma, po, 1 gm, time 24 hr; 1 gm curcuminoids oral; read-out: Mean plasma concentration
measured-metric: concentration at 24 hr (ng/mL)
Output spec: scalar in ng/mL, unitless text.

Request: GET /values?readout=concentration at 24 hr&item= COc1cc(C=CC(=O)CC(=O)C=Cc2ccc(O)c(OC)c2)ccc1O
Result: 4.27

Reference source for all entries: patent US9259401B2
